Measured log10 Ki of individual entries
Protein target, amino acids: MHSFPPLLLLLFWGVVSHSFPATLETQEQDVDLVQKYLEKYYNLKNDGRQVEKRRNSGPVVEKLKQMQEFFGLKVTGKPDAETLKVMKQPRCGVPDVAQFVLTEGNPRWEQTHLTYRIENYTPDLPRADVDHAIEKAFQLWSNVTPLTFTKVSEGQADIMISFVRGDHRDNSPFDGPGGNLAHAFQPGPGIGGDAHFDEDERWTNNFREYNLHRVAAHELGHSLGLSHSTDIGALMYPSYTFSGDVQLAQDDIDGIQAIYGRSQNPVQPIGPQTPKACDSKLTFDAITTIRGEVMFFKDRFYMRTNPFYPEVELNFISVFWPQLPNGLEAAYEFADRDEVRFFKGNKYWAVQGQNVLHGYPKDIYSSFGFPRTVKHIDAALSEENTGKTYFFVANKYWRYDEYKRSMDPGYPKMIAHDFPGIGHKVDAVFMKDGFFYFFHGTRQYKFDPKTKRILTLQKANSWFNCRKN
Measured metric: log10 Ki (log10 of the value in µM)

| Molecule smiles | Measured metric | Meas value |
| --- | --- | --- |
| COc1ccc(N2CCN(C(=O)[C@H](Cc3ccccc3)NC(=O)Nc3nnc(S)s3)CC2)cc1 | log10 Ki | 0.78 |
| CNC(=O)[C@@H](NC(=O)Nc1n[nH]c(=S)s1)c1ccccc1 | log10 Ki | 1.61 |
| COc1ccc(CNC(=O)[C@H](Cc2ccccc2)NC(=O)Nc2nnc(S)s2)cc1OC | log10 Ki | 0.79 |
| CNC(=O)[C@H](CC1CCCCC1)NC(=O)Nc1n[nH]c(=S)s1 | log10 Ki | 1.83 |
| O=C(Nc1nnc(S)s1)N[C@@H](Cc1ccccc1)C(=O)N1CCOCC1 | log10 Ki | 1.51 |
| CNC(=O)[C@H](Cc1ccc(O)cc1)NC(=O)Nc1nnc(S)s1 | log10 Ki | 1.32 |
| CN(C)C(=O)[C@H](Cc1ccccc1)NC(=O)Nc1nnc(S)s1 | log10 Ki | 2.35 |
| CNC(=O)[C@H](Cc1ccc([N+](=O)[O-])cc1)NC(=O)Nc1nnc(S)s1 | log10 Ki | 1.18 |
